Experimental System: PKC-βII (Homo sapiens)
Sequence (P05771 1-673 isoform P05771-2): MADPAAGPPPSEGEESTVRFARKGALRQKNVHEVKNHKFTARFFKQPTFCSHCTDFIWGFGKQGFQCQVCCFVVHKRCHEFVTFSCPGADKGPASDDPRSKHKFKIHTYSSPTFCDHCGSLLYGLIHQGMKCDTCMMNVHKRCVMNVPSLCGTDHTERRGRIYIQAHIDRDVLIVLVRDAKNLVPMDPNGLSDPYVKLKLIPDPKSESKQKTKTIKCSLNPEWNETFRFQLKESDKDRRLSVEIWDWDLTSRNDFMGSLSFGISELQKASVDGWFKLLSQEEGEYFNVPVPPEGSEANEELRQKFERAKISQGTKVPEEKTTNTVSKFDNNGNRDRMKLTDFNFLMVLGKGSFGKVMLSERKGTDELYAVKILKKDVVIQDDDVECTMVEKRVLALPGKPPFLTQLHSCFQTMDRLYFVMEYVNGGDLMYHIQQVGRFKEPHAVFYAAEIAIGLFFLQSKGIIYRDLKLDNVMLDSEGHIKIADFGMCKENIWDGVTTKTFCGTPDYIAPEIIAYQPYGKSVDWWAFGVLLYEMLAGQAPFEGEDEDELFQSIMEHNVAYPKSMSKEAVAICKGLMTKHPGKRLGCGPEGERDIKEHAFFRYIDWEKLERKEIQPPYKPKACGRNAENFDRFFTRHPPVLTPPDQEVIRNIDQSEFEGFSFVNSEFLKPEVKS
Measurement Description: ELISA-based competitive binding assay with purified PKC isoform
Parameters: key: —: no detectable affinity; Low to very low affinity at 10X or 20X or both PRE concentrations in at least one cell line in the cell extract assay; Low affinity in purified isoform assay.; Moderate affinity at 10X or 20X or both PRE concentrations in at least one cell line in the cell extract assay.; High affinity at 10X or 20X or both PRE concentrations in at least one cell line in the cell extract assay; High affinity in purified isoform assay
Conditions Used: Purified isoform; Table 20
Endpoint Name: Affinity for PKC isoform βII

INSERT INTO assay_data (substance, experimental_system, endpoint_name, reported_value) VALUES
  ('Ac-RDAQNLI-NH2 [PRE 13]', 'PKC-βII (Homo sapiens)', 'Affinity for PKC isoform βII', '—'),
  ('Ac-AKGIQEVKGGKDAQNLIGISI-NH2 [PRE 5]', 'PKC-βII (Homo sapiens)', 'Affinity for PKC isoform βII', '—'),
  ('Ac-KDANQLIGISI-NH2 [PRE 6]', 'PKC-βII (Homo sapiens)', 'Affinity for PKC isoform βII', '—'),
  ('ILEDKGGDAQNLIGISI [PRE 8]', 'PKC-βII (Homo sapiens)', 'Affinity for PKC isoform βII', '—'),
  ('Ac-ISIGILQNADK-NH2 [PRE 7]', 'PKC-βII (Homo sapiens)', 'Affinity for PKC isoform βII', '—'),
  ('Ac-RDAQNLIGISI-NH2 [PRE 11]', 'PKC-βII (Homo sapiens)', 'Affinity for PKC isoform βII', '—'),
  ('Ac-KDAQNLIGISI-NH2 [PRE 4, Ac-KDAQNLIGISI-NH2]', 'PKC-βII (Homo sapiens)', 'Affinity for PKC isoform βII', 'L'),
  ('Ac-KDAQNLI-NH2 [PRE 12]', 'PKC-βII (Homo sapiens)', 'Affinity for PKC isoform βII', '—'),
  ('Ac-ISIGILNQADK-NH2 [PRE 10]', 'PKC-βII (Homo sapiens)', 'Affinity for PKC isoform βII', 'L'),
  ('RRKKGGKDFVVKR [PRE 1]', 'PKC-βII (Homo sapiens)', 'Affinity for PKC isoform βII', '—'),
  ('Ac-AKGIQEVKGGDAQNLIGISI-NH2 [PRE 3]', 'PKC-βII (Homo sapiens)', 'Affinity for PKC isoform βII', '—');

###

Experimental System: PKC-δ (Homo sapiens, UniProt Q05655)
Sequence (Q05655 whole entry, canonical isoform): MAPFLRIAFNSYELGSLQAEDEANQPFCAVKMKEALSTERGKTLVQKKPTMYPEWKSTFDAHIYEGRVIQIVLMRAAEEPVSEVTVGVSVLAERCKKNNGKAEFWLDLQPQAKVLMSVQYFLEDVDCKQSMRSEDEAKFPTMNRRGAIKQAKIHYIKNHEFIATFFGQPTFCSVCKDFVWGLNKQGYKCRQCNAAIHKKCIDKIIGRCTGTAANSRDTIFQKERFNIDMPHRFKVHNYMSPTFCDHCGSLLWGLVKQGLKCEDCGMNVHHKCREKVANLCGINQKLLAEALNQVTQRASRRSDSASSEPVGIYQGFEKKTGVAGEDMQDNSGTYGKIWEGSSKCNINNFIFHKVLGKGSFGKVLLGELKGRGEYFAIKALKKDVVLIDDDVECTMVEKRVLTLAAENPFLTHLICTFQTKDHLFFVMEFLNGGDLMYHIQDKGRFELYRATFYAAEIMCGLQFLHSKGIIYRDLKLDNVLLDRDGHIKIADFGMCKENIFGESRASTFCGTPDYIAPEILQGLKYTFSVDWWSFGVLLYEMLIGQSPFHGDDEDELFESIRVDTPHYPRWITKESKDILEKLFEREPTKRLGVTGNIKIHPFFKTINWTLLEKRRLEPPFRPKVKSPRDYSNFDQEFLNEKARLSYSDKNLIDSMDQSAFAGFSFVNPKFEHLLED
Measurement Description: ELISA-based competitive binding assay with purified PKC isoform
Set-up: key: —: no detectable affinity; Low to very low affinity at 10X or 20X or both PRE concentrations in at least one cell line in the cell extract assay; Low affinity in purified isoform assay.; Moderate affinity at 10X or 20X or both PRE concentrations in at least one cell line in the cell extract assay.; High affinity at 10X or 20X or both PRE concentrations in at least one cell line in the cell extract assay; High affinity in purified isoform assay
Conditions Used: Purified isoform; Table 20
Endpoint Name: Affinity for PKC isoform δ

INSERT INTO results (substance, experimental_system, reported_value) VALUES
  ('Ac-KDANQLIGISI-NH2 [PRE 6]', 'PKC-δ (Homo sapiens, UniProt Q05655)', 'L'),
  ('RRKKGGKDFVVKR [PRE 1]', 'PKC-δ (Homo sapiens, UniProt Q05655)', 'H'),
  ('ILEDKGGDAQNLIGISI [PRE 8]', 'PKC-δ (Homo sapiens, UniProt Q05655)', '—'),
  ('Ac-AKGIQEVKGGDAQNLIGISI-NH2 [PRE 3]', 'PKC-δ (Homo sapiens, UniProt Q05655)', 'H'),
  ('Ac-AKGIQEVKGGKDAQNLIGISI-NH2 [PRE 5]', 'PKC-δ (Homo sapiens, UniProt Q05655)', 'L'),
  ('Ac-KDAQNLI-NH2 [PRE 12]', 'PKC-δ (Homo sapiens, UniProt Q05655)', 'L'),
  ('Ac-KDAQNLIGISI-NH2 [PRE 4, Ac-KDAQNLIGISI-NH2]', 'PKC-δ (Homo sapiens, UniProt Q05655)', 'H'),
  ('Ac-RDAQNLI-NH2 [PRE 13]', 'PKC-δ (Homo sapiens, UniProt Q05655)', 'L'),
  ('Ac-ISIGILQNADK-NH2 [PRE 7]', 'PKC-δ (Homo sapiens, UniProt Q05655)', '—'),
  ('Ac-ISIGILNQADK-NH2 [PRE 10]', 'PKC-δ (Homo sapiens, UniProt Q05655)', '—'),
  ('Ac-RDAQNLIGISI-NH2 [PRE 11]', 'PKC-δ (Homo sapiens, UniProt Q05655)', 'H');
